tested on: OVCAR-8; test: NCI tumour cell line growth inhibition, 48 h
Activity calls are given as the source filed them. Rule as the data show it: active = GI50 up to about 1.1 µM and inactive = higher.
Outcome field: choose from active, inactive

[ask] Hi team, can someone confirm the assay call for N#CC1=C(S)N(C2OC(CO)C(O)C(O)C2O)C(c2ccccc2)=CC1c1ccco1 (centres undefined) ?
[reply] inactive

[ask] So what was the verdict on CC(=O)O[C@H]1CCC2[C@@H]3CCC4Cc5nc6c(nc5C[C@]4(C)C3CC[C@@]21C)CC1CC[C@@H]2C(CC[C@@]3(C)C2CC[C@@H]3C(C)CCCC(C)C)[C@@]1(C)C6 (some centres undefined) in this test?
[reply] inactive

[ask] What call does the record list for CCOC(=O)c1[nH]c2c(OC)n[n+]([O-])cc2c1[N+](=O)[O-] ?
[reply] inactive

[ask] Look up the recorded call for Cc1ccc2c(ccc(/C=C\c3cc(C)c4cccnc4c3O)[n+]2C)c1 in this test.
[reply] active

[ask] Hi, sorry to bother you, what did the test record for CNC(=O)CN(CC(N)=O)C(N)=O ?
[reply] inactive

[ask] Could you check what this test reported for Nc1csc(-c2scc3c2OCCO3)c1N ?
[reply] inactive

[ask] Please let me know the test result on file for O=C(OCC1CC(C2(O)CCCCC2)C(=O)O1)c1ccccc1 (centres undefined) .
[reply] inactive

[ask] Tell me the recorded outcome of this test for CCOC(=O)C(C)c1nc2cc(N3CCOCC3)c(F)cc2[nH]c1=O (centres undefined) .
[reply] inactive

***
[ask] Field: outcome | Entry: CCOC(=O)Nn1cnnc1Cc1ccccc1
[reply] inactive

[ask] Could you kindly confirm the outcome this assay logged for c1cc2c(c(-c3c4ccccc4nc4ccccc34)c1)CC1(CC2)OCCO1 ?
[reply] inactive

[ask] Test call, this compound: C=C1C(=O)OC2/C=C(\CO)CC/C=C(\CO)CC(OC(=O)C(C)C)C12 (centres undefined)
[reply] inactive

[ask] # outcome recorded in this test, key = Cc1ccc(C)c(N2C(=O)C(=O)c3c(C)ccc(C)c32)c1
[reply] inactive

[ask] Look up the recorded call for CCC/C(Cl)=N/OC(NC(=O)OCC)(C(F)(F)F)C(F)(F)F in this test.
[reply] inactive

[ask] Entry CCOC(=O)/C(C)=C(/O)C(=O)OCC : call = ?
[reply] inactive

[ask] Which outcome was assigned to COC(=O)/C=C/c1c(CC=C(C)C)ncn1C in this test?
[reply] inactive

[ask] Just curious, what result did Cc1cc(O)c(-c2cc(O)c(C)cc2O)cc1O get here?
[reply] inactive

[ask] What did this assay record as the result for Clc1nc(Cl)nc(NC23CC4CC(CC(C4)C2)C3)n1 ?
[reply] inactive
